Tested on: SR leukemia
method.notes: NCI-60 one-dose screen, 48 h
run.conditions: 10 µM
Compounds without any hit were thinned out: in the full panel of roughly 83,000, 20% have a hit. Activity calls are given as the source filed them. Rule for the calls: active = growth percent below 10; inactive = the rest.
The reply should name one outcome from Yes (active), No (inactive)

Some solved entries appear below for comparison.
compound=Cc1occc1-c1nnc(SCC(=O)c2ccc(NC(=O)CC(C)C)cc2)o1 assigned_category=Yes
compound=CCCCN(CCCC)c1cc(C(=O)CCCCCN)c2ccccc2n1 assigned_category=Yes
compound=O=C1N=NC2=C1c1c3ccccc3c(O)n1CC2 assigned_category=No
compound=COc1cc(C)ccc1C(=O)c1ccc(C)cc1OC assigned_category=Yes
compound="O=C1OCC2=C1C(c1cccc(Cl)c1)c1cc3c(cc1N2CCO)OCO3 (configuration not stated)" assigned_category=No

Please examine the following record next.
Give the logged outcome of this assay for the following compound: O=C(/C(=C/c1ccccc1)CN1CCCCC1)c1ccccc1
Yes

###

System: DU-145 prostate
method.notes: NCI-60 one-dose screen, 48 h (100 = growth as untreated, 0 = no growth, -100 = all killed)
run.conditions: 10 µM
Compounds without any hit were thinned out: in the full panel of roughly 83,000, 20% have a hit.
# growth listing for each entry below
Write the number in % without appending the unit.

Example cases with answers are listed next.
molecule=Cn1c(C(N)=O)cc2c1-c1nc(Nc3ccccc3)ncc1CCC2 readout_type=growth observed=55.5
molecule="CCN(CC)CCCC(C)Nc1nc(-c2ccc(OC)cc2)nc2cc(Cl)ccc12 (stereo unspecified)" readout_type=growth observed=77.9
molecule=CCOC(=O)N1C/C(=C/c2ccc(Cl)cc2)C(=O)/C(=C/c2ccc(Cl)cc2)C1 readout_type=growth observed=46.3
molecule=O=C(Nc1cccc(-n2cc(-c3ccncc3)c(-c3ccc(O)c(Cl)c3)n2)c1)c1cccc(C(F)(F)F)c1 readout_type=growth observed=51.1
molecule=O=c1[nH]c(-c2ccc(Cl)cc2)nc2sc3c(c12)CCCC3 readout_type=growth observed=63.9

Alright, here's another molecule for you.
// growth lookup, key: CCOC(=O)c1ccoc1
109

###

# growth listing for each entry below
Test system: NCI-H322M lung
method.notes: NCI-60 one-dose screen, 48 h (100 = growth as untreated, 0 = no growth, -100 = all killed)
run.conditions: 10 µM
Experimental: Growth inhibition of the NCI-H322M human Non-Small Cell Lung tumor cell line is measured as a screen for anti-cancer activity. Cells are grown in 96 well plates and exposed to the test compound for 48 hours. Compounds are tested at a single concentration, which is 10^-5 M for most compounds. The reported endpoint is percent growth (GI% or GIPRCNT), where numbers from 0 - 100% represent growth inhibition, and numbers from -100% - 0 represent cell death. […]
Compounds without any hit were thinned out: in the full panel of roughly 83,000, 20% have a hit.
Write the number in % without appending the unit.

Example cases with answers are listed next.
compound=COc1ccc(-c2nn(-c3cccc(NC(=O)Nc4cccc(C(F)(F)F)c4)c3)cc2-c2ccncc2)cc1Cl observed=24.4
compound=O=C(c1cccs1)c1ccccc1Cc1ccccc1 observed=83.6
compound="COc1ccc(C2=Nc3c(C)nn(-c4ccccc4)c3NC(c3ccc(Oc4ccnc5cc(Cl)ccc45)c(OC)c3)C2)cc1 (stereo not given)" observed=95.1
compound=COc1cc(/C=C/C(=O)c2ccc(Cl)cc2)ccc1OS(=O)(=O)c1ccc(C)cc1 observed=96.7
compound=CC1=C(N2CCOCC2)C(N2CCOCC2)=C(C)C(=O)C1=O observed=114

// growth lookup, key: O=C(Nc1ccc(CN2CCc3nc4cc(O)c(O)cc4cc32)cc1)c1ccc(Cl)c(Cl)c1
94

// query: O=C(O)c1ccc(Cl)cc1Nc1ccc(F)cc1
38.1

// query: CSCCCNC(=O)c1ccc2c(c1)/C(=C/c1[nH]c(C)cc1C)C(=O)N2
50.4

// query: COc1ccc(Nc2ncnc3c2c(SC)nn3-c2ccccc2)cc1
82.4

// query: NC(=O)c1ccc(-c2cccc3c(=O)nc(N4CCOCC4)oc23)cc1
93

###

Test system: HCT-15 colon
method.notes: NCI-60 one-dose screen, 48 h (100 = growth as untreated, 0 = no growth, -100 = all killed)
run.conditions: 10 µM
Method: Growth inhibition of the HCT-15 human tumor cell line is measured as a screen for anti-cancer activity. Cells are grown in 96 well plates and exposed to the test compound for 48 hours. Compounds are tested at a single concentration, which is 10^-5 M for most compounds. The reported endpoint is percent growth (GI% or GIPRCNT), where numbers from 0 - 100% represent growth inhibition, and numbers from -100% - 0 represent cell death. For example, a value of 40 represents 60% growth inhibition. […]
This is part of a sample that, as a whole, favours compounds with a hit. Of some 83,000 tested, about 20% had one in any assay.
readout.type: growth (%)
Write the number in % without appending the unit.

Example cases with answers are listed next.
smiles_repr=COc1ccc(Nc2cc(C)nc(NCCCNc3ccnc4cc(Cl)ccc34)n2)cc1 tested_system="HCT-15 colon" readout_type=growth observed=-55.8
smiles_repr=COc1ccc(Cn2c(C(N)=O)cc3c2-c2nc(N)ncc2CCC3)cc1 tested_system="HCT-15 colon" readout_type=growth observed=91.1

Alright, here's another compound for you.
// growth lookup, key: O=S(=O)(NCCCNc1nccc(-c2c(-c3ccc(F)cc3)nc3sccn23)n1)c1ccc(F)cc1
38.4

###

Tested on: COLO 205 colon
method.notes: NCI-60 one-dose screen, 48 h (100 = growth as untreated, 0 = no growth, -100 = all killed)
run.conditions: 10 µM
About 83,000 compounds went through this panel and 20% of them were active in at least one assay; those are over-represented in the sample as a whole.
The label TRUE is reserved for growth strictly under 80%; FALSE covers values equal to or above it.

Some solved entries appear below for comparison.
compound="CCOCC(=O)C(C#N)c1ccc(Cl)c(Cl)c1 (stereo unspecified)" tested_system="COLO 205 colon" assigned_category=FALSE
compound="CCCCN(CCCC)CCCCCCCCC(O)c1cc2ccccc2c2ccccc12 (stereo unspecified)" tested_system="COLO 205 colon" assigned_category=TRUE
compound=CCC(=O)N1C/C(=C/c2ccc(Cl)cc2)C(=O)/C(=C/c2ccc(Cl)cc2)C1 tested_system="COLO 205 colon" assigned_category=TRUE

Criterion: growth strictly below 80%. Is it met by Fc1ccc2nc(-c3nc(-c4ccccc4)n4ccccc34)[nH]c2c1 ?
TRUE

// query: Cc1occc1-c1nnc(SCC(=O)c2ccc(NC(=O)CC(C)C)cc2)o1
FALSE

// query: O=C1c2ccc3c4c(ccc(c24)C(=O)N1CCNCc1ccccc1)C(=O)N(CCNCc1ccccc1)C3=O
TRUE

###

Test system: IGROV1 ovarian
method.notes: NCI-60 one-dose screen, 48 h
run.conditions: 10 µM
The panel holds about 83,000 compounds, 20% with a hit somewhere; the sample as a whole holds those more often. Active and inactive are the calls of the source. How the source made its calls: active means growth percent below 10; inactive means the rest.
The reply should name one outcome from yes (active), no (inactive)

compound=O=C(Nc1cccc(-n2cc(-c3ccncc3)c(-c3cc(O)cc(Cl)c3)n2)c1)c1ccc(N2CCOCC2)c(C(F)(F)F)c1 tested_system="IGROV1 ovarian" assigned_category=no
compound="C=C1c2c(C)nn(-c3ccc(OC)cc3)c2N(C)C23C[C@@H]1C1(C)c4c(C)nn(-c5ccc(OC)cc5)c4N(C)C(C)(C[C@H]12)C3 (stereo partly specified)" tested_system="IGROV1 ovarian" assigned_category=no
compound=O=C1/C(=C/c2ccc(Cl)cc2)SC(=Nc2ccc(Cl)cc2)N1Cc1nc2ccccc2[nH]1 tested_system="IGROV1 ovarian" assigned_category=no
compound="COc1ccc(C2=NN(C(=O)c3ccc(S(C)(=O)=O)cc3)C(c3ccc(OC)c(OC)c3)C2)c(OC)c1 (stereo unspecified)" tested_system="IGROV1 ovarian" assigned_category=no
compound=c1ccc(CSc2nnc3c4c5c(sc4nc(-c4cccnc4)n23)CCCCCC5)cc1 tested_system="IGROV1 ovarian" assigned_category=no

Give the logged outcome of this assay for the following compound: CS(=O)(=O)Nc1ccc(Nc2c3ccccc3nc3cc([N+](=O)[O-])ccc23)cc1
no

// query: O=C1OCC2=C1C(c1cccc(Br)c1)c1cc3c(cc1N2CCO)CCC3 (stereo unspecified)
no

###

# growth listing for each entry below
Test system: K-562 leukemia
method.notes: NCI-60 one-dose screen, 48 h (100 = growth as untreated, 0 = no growth, -100 = all killed)
run.conditions: 10 µM
The panel holds about 83,000 compounds, 20% with a hit somewhere; the sample as a whole holds those more often.
Write the number in % without appending the unit.

Example cases with answers are listed next.
compound=COc1ccc(-c2nn(-c3cccc(NC(=O)c4cc(C(F)(F)F)cc(C(F)(F)F)c4)c3)cc2-c2ccncc2)cc1Cl tested_system="K-562 leukemia" result_unit=% observed=31.3
compound=Fc1ccc2nc(-c3nc(-c4ccccc4)n4ccccc34)[nH]c2c1 tested_system="K-562 leukemia" result_unit=% observed=8.58
compound=CCCCC/C=C/C(=O)CCc1ccc(O)c(OC)c1 tested_system="K-562 leukemia" result_unit=% observed=59.9
compound=C#Cc1ccc(-n2c(/C=C/c3cc(OC)cc(OC)c3)nc3ncccc3c2=O)cc1 tested_system="K-562 leukemia" result_unit=% observed=75.3
compound=O=C(Nc1cccc(-n2cc(-c3ccncc3)c(-c3cc(O)cc(Cl)c3)n2)c1)Nc1ccc(Cl)c(C(F)(F)F)c1 tested_system="K-562 leukemia" result_unit=% observed=5.24
compound=COc1ccccc1CNCCN1C(=O)c2ccc3c4c(ccc(c24)C1=O)C(=O)N(CCNCc1ccccc1OC)C3=O tested_system="K-562 leukemia" result_unit=% observed=-43.8
compound=COc1ccc(-c2ccc3cc(C(=O)Nc4ccc(O)c(C(=O)/C=C/c5cc(OC)c(OC)c(OC)c5)c4)ccc3c2)cc1 tested_system="K-562 leukemia" result_unit=% observed=59
compound=O=C(c1cccs1)c1ccccc1Cc1ccccc1 tested_system="K-562 leukemia" result_unit=% observed=98.2
compound=COc1cc(-c2nn3c(/C=C4/C(=O)Nc5ccccc54)c(-c4ccc(C)cc4)nc3s2)cc(OC)c1OC tested_system="K-562 leukemia" result_unit=% observed=55.7
compound=COc1ccc2c(c1)C(=O)c1c-2c(OCCN(C)C)nc2cc(OC)c(OC)cc12 tested_system="K-562 leukemia" result_unit=% observed=62

// growth lookup, key: COc1ccc(-c2nn(-c3cccc(NC(=O)c4cccc(C(F)(F)F)c4)c3)cc2-c2ccncc2)cc1Cl
14.8

// query: COc1ccc2c(c1)O/C(=C\c1ncc([N+](=O)[O-])n1C)C2=O
1.57

// query: CCCCCC(=O)c1ccc(OCCCN2CCN(C(=O)OCC)CC2)cc1
66.4

Where do the numbers come from? From PubChem BioAssay (NCI).
